# system-under-test: T1, Peptide A (human PAR-2), C-terminal biotinylated (Human, C-terminal biotin via G4S linker)
# T1 construct: also called Peptide A C-Term
# method-summary: peptide ELISA
Give OD450 for every item shown.

Recorded OD450, per entry:
{"binder": "H2M591N (antibody, V domains shown, chimeric: human variable, mouse constant domains) VH: EVQLLESGGGLVQPGGSLRLSCATSGFTFSRYTMTWVRQAPGKGLFWVSGIGGSGGRAYYADSVKGRFTLSRDNSKNTLYLQMNSLRAEDTAVYYCAKEGDSGYDLDYWGRGTLVTVSS VL: DIQMTQYPSSLSASVGDRVTITCRARQGISNYLAWLQQKPGKAPKSLIYAASSLQRGVPSKFSGSGSGTDFTLTISSLQPEDSATYYCQQYKISPLTFGGGTKVEIK", "result": "1 to 4 od"}
{"binder": "H1M616N (antibody, V domains shown, chimeric: human variable, mouse constant domains) VH: EVQLVESGGGLAQPGRSLRVSCSASGFNFDDYAMHWVRQAPGKGLEWVSGISWNSGSRGYADSVKGRFTISRDNAKNSLYLQMNSLRAEDTALYYCVKENWAFEYWGQGTLVTVSS VL: DIVMTQTPLSSPVTLGQPASISCRSSHSLVHSDGSTYLSWLQQRPGQPPRLLIYKISNRFSGVPDRFSGSGAGTDFTLKISRVEAEDVGLYYCMQATQFPYTFGQGTKLEIK", "result": "1 to 4 od"}

Lab note: next binder to report on.
Note to self: OD450 recorded for H2M588N (antibody, V domains shown, chimeric: human variable, mouse constant domains) VH: EVQLLESGGGLVQPGGSLRLSCAASGFTFSSYAMTWVRQAPGKGLYWVSAISGGRGSAYYADSVKGRFTISRDNSKNTLYLQMNSLRAEDTAVYYCAKEGDSGYDLAYWGRGTLVTVSS VL: DIQMTQSPSSLSASVGDRVTITCRARQGISNNLAWLQQKPGKAPKSLIYAASSLQSGIPSKFSGSGSGTYFTLTISSLQPEDFATYYCQQYKSSPLTFGGGTKVEIK was 1 to 4 od

Data provenance: patent US20110059095A1
